Taken from paper PMC9180926.

CC50 at 72 h by entry:
- TEST_DESCRIPTION: Cytotoxicity assay (CCK-8) on replicon cells
- Type: cell-based
- CONDITION_CONTEXT: human, HCV 1b replicon cells (Huh-7.5.1); 50% cytotoxic concentration; CCK-8, HCV 1b replicon cells, 72 h
// return numeric value only (unit: µM, not printed)

- MOLECULE: "O=C(Cn1c(=O)n(O)c(=O)c2ccccc21)Nc1ccc(C(F)(F)F)cc1 [10p]"
  NUMERIC_READOUT: 15.3

Q: // query CC50 at 72 h value for entry O=c1[nH]c2ccc(-c3cccc([N+](=O)[O-])c3)cc2c(=O)n1O [21d]
Ans: 6.6

Q: Try O=c1[nH]c2cc(-c3ccc(F)cc3F)ccc2c(=O)n1O [21n] next.
Ans: 11.2
